- Tested on: CCRIS mutagenicity, Ames/micronucleus/aberration tests
- assay text: CCRIS mutagenicity studies
- study conditions: Test System: AMES SALMONELLA TYPHIMURIUM; Strain/Indicator: TA102; Metabolic Activation: RAT LIVER S-9, AROCLOR 1254; Method: STANDARD PLATE
The source made the active and inactive calls. No rule for the calls is given here.

smiles str: O=C([O-])c1ccccn1.O=C([O-])c1ccccn1.O=C([O-])c1ccccn1.[Cr+3]
mutagenic call: inactive; negative

smiles str: CC(C)=CCC/C(C)=C/C=O
mutagenic call: inactive; negative

smiles str: O=C(O)C(Cl)Cl
mutagenic call: inactive; negative

---

- Test system: CCRIS mutagenicity, Ames/micronucleus/aberration tests
- assay text: CCRIS mutagenicity studies
- study conditions: Test System: AMES SALMONELLA TYPHIMURIUM; Strain/Indicator: TA100; Metabolic Activation: NONE; Method: PREINCUBATION
Activity calls are given as the source filed them. No rule for the calls is given here.
Hello, when you answer, please use one of the following outcomes: yes (1) (active), no (0) (inactive)

smiles str: CC(=O)Nc1ccc2cccnc2c1
group label: no (0)
--
smiles str: Nc1ccccc1S
group label: no (0)
--
smiles str: O=C(O)C(F)(F)C(F)(F)C(F)(F)C(F)(F)C(F)(F)C(F)(F)C(F)(F)C(F)(F)C(F)(F)F
group label: no (0)
--
smiles str: [N-]=[N+]=[N-]
group label: yes (1)
--
smiles str: CBr
group label: yes (1)
--
smiles str: COc1cc(Cl)c(OC)cc1Cl
group label: no (0)

I'd appreciate the recorded outcome for C[C@H](CN=[N+]=[N-])c1ccccc1 from this test.
no (0)

I'd appreciate the recorded outcome for NC=O from this test.
no (0)

I'd appreciate the recorded outcome for COC(=O)Nc1nc2ccccc2[nH]1 from this test.
no (0)

I'd appreciate the recorded outcome for c1ccc2cnncc2c1 from this test.
no (0)

I'd appreciate the recorded outcome for CC(=O)Oc1ccccc1C(=O)O from this test.
no (0)

I'd appreciate the recorded outcome for Cc1cc2ccccc2c2cc([N+](=O)[O-])c3ccccc3c12 from this test.
yes (1)

---

- System: CCRIS mutagenicity, Ames/micronucleus/aberration tests
- assay text: CCRIS mutagenicity studies
- study conditions: Test System: AMES SALMONELLA TYPHIMURIUM; Strain/Indicator: TA100; Metabolic Activation: NONE; Method: STANDARD PLATE
Activity calls are given as the source filed them. No rule for the calls is given here.
Hello, when you answer, please use one of the following outcomes: active, inactive

Answered examples (6):
molecule: c1ccc2c(c1)-c1cc3ccc4ccccc4c3cc1C1OC21 (stereo unspecified)
group label: inactive
//
molecule: CC(=O)c1oc([N+](=O)[O-])c(Cl)c1Cl
group label: active
//
molecule: c1ccc2sc(SN3CCOCC3)nc2c1
group label: inactive
//
molecule: CC(=O)Nc1ccc2[nH]c3ccccc3c2c1
group label: inactive
//
molecule: CCC(C)c1ccc(/C=C/c2ccc(N)cc2)cc1 (stereo unspecified)
group label: inactive
//
molecule: C=C1CC[C@H]2C[C@@H]1C2(C)C
group label: inactive

I'd appreciate the recorded outcome for OCCBr from this test.
active

I'd appreciate the recorded outcome for Cc1ccc(NS(=O)(=O)c2cccc3cccnc23)cc1 from this test.
inactive

I'd appreciate the recorded outcome for CC(=O)c1oc([N+](=O)[O-])c(-c2ccccc2)c1-c1ccccc1 from this test.
active

I'd appreciate the recorded outcome for CS(=O)(=O)c1ccc(Cl)cc1 from this test.
inactive

I'd appreciate the recorded outcome for O=c1c(O)c(O)c1=O from this test.
inactive

---

- Test system: CCRIS mutagenicity, Ames/micronucleus/aberration tests
- assay text: CCRIS mutagenicity studies
- study conditions: Test System: AMES SALMONELLA TYPHIMURIUM; Strain/Indicator: TA1535; Metabolic Activation: NONE; Method: PREINCUBATION
The source made the active and inactive calls. How the calls were made is not given here.
Hello, when you answer, please use one of the following outcomes: active, inactive

Answered examples (3):
compound: Nc1ccc2nc3ccccc3c(N)c2c1
group label: inactive
--
compound: CC(=O)c1cc2c(cc1C)C(C)(C)C(C)CC2(C)C (stereo unspecified)
group label: inactive
--
compound: O=C(S)c1ccccc1
group label: inactive

I'd appreciate the recorded outcome for O=C(O)CN(CC(=O)O)CC(=O)O from this test.
inactive

I'd appreciate the recorded outcome for C=CCN(CC=C)CC=C from this test.
inactive

I'd appreciate the recorded outcome for CCN=[N+](C)[O-] from this test.
inactive

I'd appreciate the recorded outcome for CCCCC(CC)COS(=O)(=O)O (stereo unspecified) from this test.
inactive

I'd appreciate the recorded outcome for C[n+]1c2ccccc2cc2c(N)cccc21 from this test.
inactive

I'd appreciate the recorded outcome for O=C1Nc2ccc(Cl)cc2C(c2ccccc2)=NC1O (stereo unspecified) from this test.
inactive

I'd appreciate the recorded outcome for c1ccsc1 from this test.
inactive

I'd appreciate the recorded outcome for CC#N from this test.
inactive

I'd appreciate the recorded outcome for Nc1cc(S(=O)(=O)O)ccc1O from this test.
inactive

I'd appreciate the recorded outcome for C=CCc1ccc(OC)cc1 from this test.
inactive

I'd appreciate the recorded outcome for Cc1ccccc1N from this test.
inactive

I'd appreciate the recorded outcome for c1ccc(C2CO2)cc1 (stereo unspecified) from this test.
active

I'd appreciate the recorded outcome for CC(=O)/C=C/c1ccc2c(c1)OCO2 from this test.
inactive

I'd appreciate the recorded outcome for Cc1ccc(O)c(N)c1 from this test.
inactive

I'd appreciate the recorded outcome for O=C1c2ccccc2C(=O)C1c1ccc2ccccc2n1 from this test.
inactive

---

- Test system: CCRIS mutagenicity, Ames/micronucleus/aberration tests
- assay text: CCRIS mutagenicity studies
- study conditions: Test System: AMES SALMONELLA TYPHIMURIUM; Strain/Indicator: TA98; Metabolic Activation: RAT, LIVER, S-9, AROCLOR 1254; Method: STANDARD PLATE
The source made the active and inactive calls. How the calls were made is not given here.
Hello, when you answer, please use one of the following outcomes: 1.0 (active), 0.0 (inactive)

I'd appreciate the recorded outcome for COc1ccc2nc(N)sc2c1 from this test.
1.0

I'd appreciate the recorded outcome for O=C1c2c(O)ccc(O)c2C(=O)C2C(O)=CC=C(O)C12 (stereo unspecified) from this test.
0.0

I'd appreciate the recorded outcome for O=C1OCC(C(Cl)Cl)=C1Cl from this test.
0.0

---

- Tested on: CCRIS mutagenicity, Ames/micronucleus/aberration tests
- assay text: CCRIS mutagenicity studies
- study conditions: Test System: AMES SALMONELLA TYPHIMURIUM; Strain/Indicator: TA100; Metabolic Activation: RAT, LIVER, S-9, AROCLOR 1254; Method: PREINCUBATION
Calls of active or inactive are those of the source. How the calls were made is not given here.
Hello, when you answer, please use one of the following outcomes: active, inactive

Answered examples (5):
compound: COc1cccc(N)c1
group label: inactive

compound: COc1cc2c(c3oc(=O)c4c(c13)CCC4=O)[C@@H]1C=CO[C@@H]1O2
group label: active

compound: O=NN1CCOCC1
group label: active

compound: C[Si](C)(C)Cl
group label: inactive

compound: Oc1ccc2c3ccccc3c3cc4ccccc4cc3c2c1O
group label: active

Would you kindly look at the next entry?
I'd appreciate the recorded outcome for Nc1cc2c3c(ccc2c2ccccc12)[C@H](O)[C@@H](O)C=C3 from this test.
active

---

- Tested on: CCRIS mutagenicity, Ames/micronucleus/aberration tests
- assay text: CCRIS mutagenicity studies
- study conditions: Test System: AMES SALMONELLA TYPHIMURIUM; Strain/Indicator: TA100; Metabolic Activation: NONE; Method: PREINCUBATION
- Description: The CCRIS database contains chemical records with carcinogenicity, mutagenicity, tumor promotion, and tumor inhibition test results. It was developed by the National Cancer Institute (NCI). Data are derived from studies cited in primary journals, current awareness tools, NCI reports, and other sources. Test results have been reviewed by experts in carcinogenesis and mutagenesis. CCRIS provides historical information from the years 1985 - 2011. It is no longer updated. […]
Calls of active or inactive are those of the source. How the calls were made is not given here.
Hello, when you answer, please use one of the following outcomes: active, inactive

Answered examples (6):
compound: O=C1[C@H]2CC=CC[C@H]2C(=O)N1SC(Cl)(Cl)Cl
assayed target: CCRIS mutagenicity, Ames/micronucleus/aberration tests
group label: active
//
compound: COc1cc2c(c3oc(=O)c4c(c13)CCOC4=O)[C@@H]1C=CO[C@@H]1O2
assayed target: CCRIS mutagenicity, Ames/micronucleus/aberration tests
group label: active
//
compound: O=C(O)Cc1ccccc1Cl
assayed target: CCRIS mutagenicity, Ames/micronucleus/aberration tests
group label: inactive
//
compound: c1ccc(P(c2ccccc2)c2ccccc2)cc1
assayed target: CCRIS mutagenicity, Ames/micronucleus/aberration tests
group label: inactive
//
compound: C=CCc1ccc(OC)cc1
assayed target: CCRIS mutagenicity, Ames/micronucleus/aberration tests
group label: inactive
//
compound: O=c1c(O)c(-c2ccc(O)c(O)c2)oc2cc(O)cc(O)c12
assayed target: CCRIS mutagenicity, Ames/micronucleus/aberration tests
group label: active

I'd appreciate the recorded outcome for Nc1ccc(C=O)cc1 from this test.
inactive

I'd appreciate the recorded outcome for Clc1nncc2ncccc12 from this test.
inactive

I'd appreciate the recorded outcome for COCc1c(O)cc2c(c1O)C(=O)c1ccccc1C2=O from this test.
active

I'd appreciate the recorded outcome for C=C(C)C(=O)OC(C)C from this test.
inactive
